These data points were gathered from patent US20240218057A1.

Measured EC50 accompanies every entry in the list below.
Target: T1, SARS-COV-2 RBD (SARS-COV-2, UniProt P0DTC2 319-539)
T1 construct: also called WT RBD
Test: ELISA, RBD coated
Please state the figure in ng/mL; there is no need to write the unit.

Known results for binders:
C839 (antibody, V domains shown, IgG; V domains only) VH: QVQLQESGPGLVKPLDTLSLTCTVSGASISSYYWSWIRQPAGKGLEWIGLIYSSGSTTYNPSLKSRVTMSVDTSKKQFSLNLSSMTAADTAVYYCARGSALNWKSIGYFDSWGQGTLVTV VL: DIQMTQSPSSLSASIRDRVTITCQASQDISNYLNWYQQKAGEAPKLLIYDASSLETGVPSRFSGSGSGTEFTLTISSLQPEDIATYYCQQYDHVPLTFGGGTKVEIK ... 4.38
C1033 (antibody, V domains shown, IgG; V domains only) VH: QVQLVQSGAEVKKPGSSVKVSCKASGGTFSRNVISWVRQAPGQGLEWMGGIIPMFGTANYAQKFQGRVTISADESTSTAYMELSSLRSEDTAVYYCAREDFILESAPIRENSYYYYGMDVWGQGTTVTVSS VL: EIVLTQSPGTLSLSPGERATLSCRASQSVSSNYLAWYQQKPGQAPRLLIYDASSRATGIPDRFSGSGSGTDFTLTIRRLEPEDFAVYYCQQYGGSPRTFGQGTKVEIK ... 3.63

Would you kindly look at the next entry?
Prompt: Look up and state reported EC50 for C881 (antibody, V domains shown, IgG; V domains only) VH: EVQLVESGGGLIQPGGSLRLSCAVSGVAVSTNYMSWVRQAPGQGLEWVSTIYSGDTTYYSDSVKGRFTISRDNSKNTFYLQMNSLRVPDTAVYYCARLGGVFNGFNGSFDYWGQGTLVTVS VL: QSALTQPASVSGSPGQSITISCIGTSSDFENYNLVSWYQQHPGKAPKVMIYEDTKRPSGVSNRFSGSKSANTASLTISGLQAEDEAEYYCCSYAGASTWVFGGGTRVTVV
Response: 1.88
